- assayComment: NCI Yeast Anticancer Drug Screen. Data for the mec2-1 strain (AID 157)
- details: S. cerevisiae mec2-1 strain, at 3.7 µM, stronger effect = higher value
- Description: Growth inhibition of yeast strains with defined genetic alterations is measured as a screen for potential anti-cancer activity. Selected strains with alterations in DNA damage repair or cell cycle control were exposed to compounds and growth inhibition was measured relative to vehicle treated controls. The strain used in this assay is mec2-1
Compounds without any hit were thinned out: in the full panel of roughly 79,000, 15% have a hit. Activity calls are given as the source filed them. Rule as the data show it: active = growth inhibition above about 70%; inactive = the rest.
assayEndpoint: growth inhibition

INSERT INTO assay_data (molecule, assayendpoint, reported) VALUES
  ('CC(=O)CC(=O)/C=C/c1cccs1', 'growth inhibition', '-38% (inactive)'),
  ('Cc1cccc2c1N=C(C(F)(F)F)CC2=O', 'growth inhibition', '1% (inactive)'),
  ('CCC(=O)Oc1ccc(/C=N/NC(N)=S)nc1', 'growth inhibition', '0% (inactive)'),
  ('Cc1ccc(S(=O)(=O)N/N=C/C2(c3ccccc3)c3ccccc3-c3ccccc32)cc1', 'growth inhibition', '15% (inactive)'),
  ('Cc1cc(O)c2c(c1O)C(=O)C13C(=C2O)C(=O)C2C(O)C1C1C(O)C3C(=O)C3=C(O)c4c(O)cc(C)c(O)c4C(=O)C321 (configuration not stated)', 'growth inhibition', '34% (inactive)'),
  ('CC1=CC2C(C(C)C)CC1C1C(=O)OC(=O)C21 (configuration not stated)', 'growth inhibition', '0% (inactive)'),
  ('Cc1ccc(N=Nc2ccc(O)c(C)c2)cc1', 'growth inhibition', '11% (inactive)'),
  ('COc1ccc(N=N/C(=N\NC(=O)c2cc(Br)ccc2O)c2ccc(N(CCC#N)CCC#N)cc2OC)cc1', 'growth inhibition', '-6% (inactive)'),
  ('CCn1ncc(N=O)c1N', 'growth inhibition', '11% (inactive)'),
  ('N#C/C(=C\c1ccccc1)c1ccccc1F', 'growth inhibition', '0% (inactive)'),
  ('COc1ccc(C(C#N)=C2C=CC(=NO)C=C2)cc1', 'growth inhibition', '16% (inactive)'),
  ('CN(C)CC1CCCc2ccccc2C1=O (configuration not stated)', 'growth inhibition', '-12% (inactive)'),
  ('N#C/C(=C/c1c(Cl)cccc1Cl)C(N)=O', 'growth inhibition', '-8% (inactive)'),
  ('NC(N)=NCCCS(=O)(=O)Nc1ccc(Nc2c3ccccc3nc3cc([N+](=O)[O-])ccc23)cc1', 'growth inhibition', '-32% (inactive)'),
  ('C=C(CCCO)[C@@H]1CC[C@@](C)(O)[C@H]1C', 'growth inhibition', '-39% (inactive)'),
  ('COc1cc(N)ccc1Nc1c2ccccc2nc2ccccc12', 'growth inhibition', '-30% (inactive)'),
  ('NCc1c(O)ccc2ccccc12', 'growth inhibition', '-1% (inactive)');

----------
- assayComment: NCI Yeast Anticancer Drug Screen. Data for the mlh1 strain (AID 171);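 also: 0% = growth of vehicle-treated control cultures of the same strain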
- details: S. cerevisiae mlh1 strain growth inhibition; at 3.7 µM; stronger effect = higher value
Compounds without any hit were thinned out: in the full panel of roughly 79,000, 15% have a hit.
assayEndpoint: growth inhibition (%)

INSERT INTO assay_data (chemicalstring, assayendpoint, reported) VALUES
  ('O=[N+]([O-])/C(C(Cl)=C(Cl)Cl)=C1/OCCS1', 'growth inhibition', 48),
  ('CCN(CC)CCNC(=O)c1nn(-c2ccc(Cl)cc2)c2c1CCc1cc(OC)ccc1-2', 'growth inhibition', 17),
  ('NNC(=S)Nc1cccc2ccccc12', 'growth inhibition', -38),
  ('C=C(CCCO)[C@@H]1CC[C@@](C)(O)[C@H]1C', 'growth inhibition', -23);

----------
- assayComment: NCI Yeast Anticancer Drug Screen. Data for the wt2 strain (AID 169);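 also: 0% = growth of vehicle-treated yeast cultures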
- details: S. cerevisiae wt2 strain growth inhibition; at 1.2 µM; stronger effect = higher value
The panel holds about 79,000 compounds, 15% with a hit somewhere; the sample as a whole holds those more often.
Entries annotated with measured growth inhibition
assayEndpoint: growth inhibition (%)

INSERT INTO measurements (compound, assayendpoint, reported) VALUES
  ('Cc1cccc(/C=N/NC(=S)N(C)CCc2ccccn2)n1', 'growth inhibition', 89),
  ('N#CSC1CCCCNC1=O (configuration not stated)', 'growth inhibition', 0),
  ('O=C1CSC(=S)N1Cc1ccc(Cl)cc1Cl', 'growth inhibition', 12),
  ('CC(=O)OCC1OC(O[C@H]2C=C[C@@H](C(=O)OCc3ccccc3)n3c(=O)n(-c4ccccc4)c(=O)n32)C(OC(C)=O)C(OC(C)=O)C1OC(C)=O (some centres not stated)', 'growth inhibition', -36),
  ('COc1ccc(C(C#N)=C2C=CC(=NO)C=C2)cc1', 'growth inhibition', -9),
  ('COc1cc(NCc2ccc3nc(N)nc(N)c3c2C)cc(OC)c1OC', 'growth inhibition', -4),
  ('Nc1nc2c(c(=O)[nH]1)NC(CCNc1ccc(C(=O)O)cc1)CN2 (configuration not stated)', 'growth inhibition', 0),
  ('CN(C)Cc1cccc(CN(C)C)[c]1[Sn]([Br])([c]1ccccc1)[c]1ccccc1', 'growth inhibition', 10),
  ('CCOC(=O)CNC(=O)c1[nH]cnc1/N=N/N(C)C', 'growth inhibition', -2),
  ('O=C(NC(=S)Nc1ccccn1)c1ccccc1', 'growth inhibition', -32),
  ('O=C1C=CC(=O)N1c1ccc(I)cc1', 'growth inhibition', -2),
  ('N#C/C(=C1C=C(Br)/C(=N\O)C=C\1Cl)c1cccc2ccccc12', 'growth inhibition', 0);

----------
- assayComment: NCI Yeast Anticancer Drug Screen. Data for the mec2-1 strain (AID 157)
- details: S. cerevisiae mec2-1 strain, at 50.0 µM (retest, dose inferred, filed as 5.0)
Compounds without any hit were thinned out: in the full panel of roughly 79,000, 15% have a hit. The source made the active and inactive calls. Rule as the data show it: active = growth inhibition above about 70%; inactive = the rest.
Possible outcomes: label 1 = active, label 0 = inactive

INSERT INTO assay_data (chemicalstring, labelvalue) VALUES
  ('C(=N/NC1=NCCN1)/c1c2ccccc2c(/C=N\NC2=NCCN2)c2ccccc12', 'label 1'),
  ('NC(=O)N1c2ccccc2C=Cc2ccccc21', 'label 1'),
  ('CCCCCCSc1nc(COC(=O)NC)c(COC(=O)NC)n1C', 'label 0'),
  ('N#C/C(=C1C=C/C(=N/O)c2ccccc2/1)c1ccccc1', 'label 1');

----------
- assayComment: NCI Yeast Anticancer Drug Screen. Data for the rad18 strain (AID 177)
- details: S. cerevisiae rad18 mutant growth inhibition; at 3.7 µM; stronger effect = higher value
- Description: Growth inhibition of yeast strains with defined genetic alterations is measured as a screen for potential anti-cancer activity. Selected strains with alterations in DNA damage repair or cell cycle control were exposed to compounds and growth inhibition was measured relative to vehicle treated controls. The strain used in this assay is rad18
This is part of a sample that, as a whole, favours compounds with a hit. Of some 79,000 tested, about 15% had one in any assay. Active and inactive are the calls of the source. Cut-off read from the data, not from the text of the source: active = growth inhibition above about 70%; inactive = the rest.
Each record here notes measured growth inhibition.
assayEndpoint: growth inhibition

INSERT INTO assay_data (molecule, assayendpoint, reported) VALUES
  ('S=C(S)NCC1CCC(CNC(=S)S)CC1 (stereo unspecified)', 'growth inhibition', '6% (inactive)'),
  ('CCN(CC)N=Nc1c(C(N)=O)n[nH]c1C', 'growth inhibition', '0% (inactive)'),
  ('O=[N+]([O-])/C(C(Cl)=C(Cl)Cl)=C1/OCCS1', 'growth inhibition', '93% (active)'),
  ('CC(=O)[O-].O=C([CH-]C(=O)c1ccccc1)c1ccccc1.O=C([CH-]C(=O)c1ccccc1)c1ccccc1.[Sm+3]', 'growth inhibition', '12% (inactive)'),
  ('S=c1nc(Cl)cc2[nH]c(Cl)cn12', 'growth inhibition', '3% (inactive)'),
  ('O=C(Nc1ccc2c(c1)Cc1c-2ccc([N+](=O)[O-])c1F)C(F)(F)F', 'growth inhibition', '0% (inactive)'),
  ('O=Cc1coc2ccccc2c1=O', 'growth inhibition', '19% (inactive)'),
  ('CCOC(=O)C(NC(=O)CC)(N1CCN(c2cc3c(cc2F)c(=O)c(C(=O)O)cn3C2CC2)CC1)C(F)(F)F (stereo unspecified)', 'growth inhibition', '-2% (inactive)'),
  ('COC(=O)c1n[nH]c(C)c1N=NN(C)CCC#N', 'growth inhibition', '68% (inactive)'),
  ('CCCCCCCCCCCCCCCCCCNC(=S)/N=C\C1=C(O)c2ccccc2C1=O', 'growth inhibition', '11% (inactive)'),
  ('Cc1cc(C(C)(C)CC(C)(C)C)cc(O)c1O', 'growth inhibition', '23% (inactive)'),
  ('CC(=O)C1(O)Cc2c(O)c3c(c(O)c2C(OC2CC(N)C(O)C(C)O2)C1)C(=O)c1ccccc1C3=O (stereo unspecified)', 'growth inhibition', '60% (inactive)'),
  ('CSc1s[s+]c(SC)c1-c1ccccc1', 'growth inhibition', '14% (inactive)'),
  ('CCC(=O)N(c1ccccc1)C(C)CN1CCC(O)(c2cccc(C(F)(F)F)c2)CC1 (stereo unspecified)', 'growth inhibition', '9% (inactive)'),
  ('Nc1ccc2c(=S)c3ccccc3[nH]c2c1', 'growth inhibition', '-2% (inactive)'),
  ('CN[C@@H]1C[C@H]2O[C@@](C)([C@@H]1OC)n1c3ccccc3c3c4c(c5c6ccccc6n2c5c31)C(=O)N[C@@H]4O', 'growth inhibition', '-7% (inactive)');
